tested_target: Sialic acid-binding Ig-like lectin 9 (Homo sapiens)
assay_name: Hs-Siglec9 ALPHAscreen SOP 20170721
Parameters: scale not given: direction of the effect not stated beside the values
condition_parameters: 10 µM
Can you tell me Percent Effect for the items I'm about to list?
Response body: numeric value in %, unit text excluded.

### Prompt Find the measured Percent Effect: item O=C([C@H]1C[C@H]2OCC[C@H]2N(Cc2ccncc2)C1)N1CCCCO1 , target or system Sialic acid-binding Ig-like lectin 9 (Homo sapiens).
### Response -0.793

### Prompt Request: Percent Effect, test system Sialic acid-binding Ig-like lectin 9 (Homo sapiens), entry c1cncc(CO[C@H]2CC[C@H]3[C@@H]2OCCN3C2CCOCC2)c1
### Response 5.81

### Prompt Requested read-out Percent Effect, target or system Sialic acid-binding Ig-like lectin 9 (Homo sapiens), entry O=C(c1cscn1)N1CCN2C[C@H](OCc3cccnc3)C[C@H]2C1
### Response -10.9

### Prompt Write down the reported Percent Effect of c1cncc(N2CCCC3(CN(Cc4cccs4)CCO3)C2)c1 (centres undefined) , test system: Sialic acid-binding Ig-like lectin 9 (Homo sapiens).
### Response -11.3

###

Please provide measured Percent Effect for the entries that follow.
tested_target: Aspartate--tRNA(Asp/Asn) ligase (Mycobacterium tuberculosis (strain ATCC 25618 / H37Rv)); further: in the data most compounds retested in dose-response had high values
Sequence (whole entry): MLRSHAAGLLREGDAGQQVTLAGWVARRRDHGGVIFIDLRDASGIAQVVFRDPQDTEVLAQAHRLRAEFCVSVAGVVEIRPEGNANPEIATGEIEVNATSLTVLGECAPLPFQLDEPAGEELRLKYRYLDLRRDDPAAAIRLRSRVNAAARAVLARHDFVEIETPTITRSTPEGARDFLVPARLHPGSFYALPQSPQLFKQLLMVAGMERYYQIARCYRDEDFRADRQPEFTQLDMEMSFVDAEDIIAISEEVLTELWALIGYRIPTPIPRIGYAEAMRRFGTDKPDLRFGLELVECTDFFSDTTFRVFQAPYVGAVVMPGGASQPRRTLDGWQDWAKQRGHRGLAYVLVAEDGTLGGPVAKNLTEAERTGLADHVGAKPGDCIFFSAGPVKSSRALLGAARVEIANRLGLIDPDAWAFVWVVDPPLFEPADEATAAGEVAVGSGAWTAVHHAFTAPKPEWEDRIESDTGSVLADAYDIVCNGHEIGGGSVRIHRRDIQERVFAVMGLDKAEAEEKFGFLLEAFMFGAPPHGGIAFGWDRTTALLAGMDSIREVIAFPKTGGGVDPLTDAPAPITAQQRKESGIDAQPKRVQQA
assay_name: Assay for Asp RNA synthetase-1 from Mycobacterium tuberculosis
Type: functional
Design: scale not given: direction of the effect not stated beside the values
condition_parameters: 30 µM
Numbers only here, please. The scale is %.

### Prompt Need Percent Effect of Cc1ncc(-c2ccnc(N3CCN(C)CC3)n2)c(-c2cccnc2)n1 , thanks.
### Response 4.45

### Prompt Percent Effect lookup needed for CN1CCCN(C(=O)c2ccc3c(c2)nc(N2CCOCC2)n3C)CC1 , thanks.
### Response -3.09

### Prompt Return reported Percent Effect; argument: COCCN1CCC2(COCc3cnc(N4CCOCC4)nc32)C1 (stereo not drawn)
### Response -3.07

### Prompt Would you kindly share the measured Percent Effect for CCc1nc(C2CCCN(C(=O)c3ccc(OC(C)C)nc3)C2)no1 (stereo not drawn) ?
### Response -1.24

### Prompt Form field: reported Percent Effect of Cc1occc1C(=O)N1CCC2(CCC(=O)N(CC(N)=O)C2)CC1
### Response -2.4

### Prompt Which Percent Effect is listed for COc1cccc(Cc2nnc(SC3CCOC3=O)o2)c1 (stereo not drawn) ?
### Response -2.01

### Prompt Which Percent Effect reading was recorded for the molecule O=C(Nc1ccc(F)cc1F)Nc1c[nH]c(=O)[nH]c1=O ?
### Response 1.82

### Prompt I'd like to know its Percent Effect. The molecule in question is CSC(C)C(=O)NCCCc1cc(N)n(-c2ccccc2)n1 (stereo not drawn)
### Response -3.65

### Prompt Entry O=C(c1ccc(=O)[nH]n1)N1CC(c2nc(Cc3ccccc3)no2)C1 has what Percent Effect?
### Response -0.546

### Prompt Percent Effect lookup needed for CC(C)Oc1ncccc1CNC(=O)N1CCC(C(N)=O)C1 (stereo not drawn) , thanks.
### Response -4.37

### Prompt Given the molecule CCN(Cc1ccc2c(c1)OCO2)C(=O)NC(C)Cn1cccn1 (stereo not drawn) , what is its reported Percent Effect?
### Response -0.819

### Prompt May I ask what Percent Effect has been recorded for Cc1ccc(CC(=O)N2Cc3nccn3CC(Cn3cccn3)C2)cc1 (stereo not drawn) ?
### Response 0.0228

### Prompt Endpoint output: Percent Effect of Cc1nc(CN2CCCC(N(C)Cc3nnsc3Cl)C2)no1 (stereo not drawn) . Value?
### Response -2.25

### Prompt Would you mind telling me what Percent Effect value was observed for CN1C(=O)CC(C(=O)O)C12CCN(Cc1ccc(Cl)cc1F)CC2 (stereo not drawn) ?
### Response -1.62

### Prompt What does the record list as Percent Effect for Cc1ccccc1CS(=O)(=O)NCCCN1CCCCC1 ?
### Response -2.17

### Prompt # query: Percent Effect of entry c1ccc(-c2ccc3nc(C4CCN(CC5CC5)CC4)nn3c2)cc1
### Response 1.41

### Prompt # input molecule: O=C(c1ccc2c(c1)CCC2)N1C[C@@H](CN2CCOCC2)[C@@H](CO)C1 ; wanted: its Percent Effect
### Response 1.28

### Prompt Percent Effect lookup needed for CN(CCCNC(=O)N1CCCC1c1ccsc1)c1ccccn1 (stereo not drawn) , thanks.
### Response -3.28
